Target: LTD4 -induced contractions of guinea-pig trachea (Cavia porcellus)
Construct: contractions of guinea-pig tracheae; from tissue; host or cells: guinea-pig trachea
Sequence (Q2NNR5 whole entry): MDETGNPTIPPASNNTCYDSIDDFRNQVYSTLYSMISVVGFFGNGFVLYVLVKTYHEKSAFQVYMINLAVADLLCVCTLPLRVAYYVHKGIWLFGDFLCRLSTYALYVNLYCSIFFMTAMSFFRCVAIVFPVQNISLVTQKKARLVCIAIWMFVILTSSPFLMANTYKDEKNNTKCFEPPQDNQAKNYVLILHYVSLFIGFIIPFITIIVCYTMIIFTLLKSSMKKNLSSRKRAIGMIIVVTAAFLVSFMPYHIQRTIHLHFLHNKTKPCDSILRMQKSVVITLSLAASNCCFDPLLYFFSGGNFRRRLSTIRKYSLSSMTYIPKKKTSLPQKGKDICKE
Test: inhibition of LTD4-induced contractions of guinea-pig trachea
Format: cell-based
Details: read-out: pKB values for the inhibition of LTD4 -induced contractions of guinea-pig trachea (converted)
Criterion: Kb meeting or surpassing 80 nM. Met: yes. Not met: no.

A selection of reference data follows.
{"columns": ["smiles_record", "qualitative_label"],
 "data": [
  ["O=C(O)CCC(=O)Nc1cc(C(=O)O)ccc1OCCCc1ccc(OCCCCOc2ccccc2)cc1", "yes"],
  ["O=C(CCc1ccc(OCCCCOc2ccccc2)cc1)Nc1ccc(C(=O)O)cc1C(=O)O", "no"],
  ["CS(=O)(=O)Nc1ccc(OCCCc2ccc(OCCCCOc3ccccc3)cc2)c(C(=O)NCCC(=O)O)c1", "yes"],
  ["O=C(CCc1ccc(OCCCCOc2ccccc2)cc1)Nc1cc(C(=O)O)cc(C(=O)O)c1", "yes"],
  ["O=C(O)CCCC(=O)Nc1cc(C(=O)O)ccc1OCCCc1ccc(OCCCCOc2ccccc2)cc1", "yes"]
]}

Then there is this compound:
Task: Check this compound for Kb at or above 80 nM: O=C(O)COc1cc(C(=O)O)ccc1NC(=O)CCc1ccc(OCCCCOc2ccccc2)cc1
Output: no
